Method: Cell Viability - LYMP2-009 (AID 968);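 further: cells exposed to compound for 24 h at 37 °C; nearly all actives have a fitted effect of over 55% in size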
Cond: LYMP2-009 lymphoblastoid cell viability; series mostly up to 92.2 µM
From the text: NIH Chemical Genomics Center [NCGC] NIH Molecular Libraries Screening Centers Network [MLSCN] National Institutes of Environmental Health Sciences [NIEHS] National Toxicology Program [NTP] We have developed a 1536-well cell-based assay for quantitative high throughput screening (qHTS) against a number of cell lines to determine in vitro cytotoxicity of small molecules. […] 8. Detection; Luminescence; Viewlux plate reader […]
Results filed as inconclusive are left out. The source made the active and inactive calls. The call rests on the fitted dose curve; in most records, active means well fitted cell-killing curve with a large enough effect; inconclusive means small, poorly fitted or top-dose-only effect; inactive means flat fitted curve, though single readings scatter.
Result category, one only: active, inactive

Please let me know the test result on file for COc1ccc(CN(CCN(C)C)c2ccccn2)cc1 .
inactive

Tell me the recorded outcome of this test for Nc1ncn([C@@H]2O[C@H](CO)[C@@H](O)[C@H]2O)c(=O)n1 .
active

Record lookup: outcome of this test for CCCCNC(=O)NS(=O)(=O)c1ccc(C)cc1 ?
inactive

Could you kindly confirm the outcome this assay logged for Nc1nc(N)c2nc(-c3ccccc3)c(N)nc2n1 ?
inactive

How did this test come out for CCCCOCCOCCOCc1cc2c(cc1CCC)OCO2 ?
inactive

Tell me the recorded outcome of this test for NC(=O)N1c2ccccc2C=Cc2ccccc21 .
inactive

====

Tested on: CP211
Method: qHTS profiling for inhibitors of Plasmodium falciparum proliferation (AID 504749); further: nearly all actives have a fitted effect of over 60% in size
Cond: P. falciparum in erythrocytes, SYBR Green DNA, 72 h; series mostly up to 28.7 µM
Results filed as inconclusive are left out. Activity calls are given as the source filed them. The call rests on the fitted dose curve; in most records, active means well fitted inhibition curve with a large enough effect; inconclusive means small, poorly fitted or top-dose-only effect; inactive means flat fitted curve, though single readings scatter.
Allowed answers: active, inactive

Recorded test call requested for CCN1CCc2nc(N)oc2CC1
inactive

Which outcome did this test record for the molecule Cc1ccc(Cl)c(Nc2ccccc2C(=O)O)c1Cl ?
inactive

Recorded test outcome, item CC(=O)Nc1nnc(S(N)(=O)=O)s1
inactive

Recorded test outcome, item NCCCNCCSP(=O)(O)O
inactive

I would be grateful if you could indicate the recorded call for NC1=NCC2c3ccccc3Cc3ccccc3N12 (stereo unspecified) .
inactive

How was Nc1nc(N)c2nc(-c3ccccc3)c(N)nc2n1 classified in this test?
inactive

Tell me the assay call for c1cnc(N2CCN(Cc3ccc4c(c3)OCO4)CC2)nc1 please.
inactive

Just curious, what result did Cc1nc2c([nH]1)c(=O)n(C)c(=O)n2Cc1ccco1 get here?
inactive

# outcome recorded in this test, key = CCO/C([O-])=N/c1c[n+](N2CCOCC2)no1
inactive

Query: recorded result category for O=C(CCNNC(=O)c1ccncc1)NCc1ccccc1 in this test
inactive

# lookup: test call for Cc1ccc(S(=O)(=O)NC(=O)NN2CCCCCC2)cc1
inactive

Name the outcome recorded for Cc1nc2ccccn2c(=O)c1CCN1CCC(C(=O)c2ccc(F)cc2)CC1 in the assay.
inactive

For CC1=NS(=O)(=O)c2cc(Cl)ccc2N1 , which call appears in the assay record?
inactive

Outcome logged for Nc1c2c(nc3ccccc13)CCCC2O (stereo unspecified) in this assay:
inactive

For this molecule, state the assay outcome: CC[N+](C)(C)c1cccc(O)c1
inactive

Called result for CCN1CCC[C@H]1CNC(=O)c1c(O)c(Cl)cc(Cl)c1OC
inactive

Give the logged outcome of this assay for the following molecule: CCN(Cc1ccncc1)C(=O)C(CO)c1ccccc1 (stereo unspecified)
inactive

Look up the recorded call for CCNC(=O)N1CCN(CCCC(c2ccc(F)cc2)c2ccc(F)cc2)CC1 in this test.
active

Identify the outcome logged in this assay for the molecule shown: OCCN1CCN(CCCN2c3ccccc3C=Cc3ccccc32)CC1
active

Entry Nc1ncn([C@@H]2O[C@H](CO)[C@@H](O)[C@H]2O)c(=O)n1 : call = ?
inactive

Any idea what this test logged for NC(=O)c1cn(Cc2c(F)cccc2F)nn1 ?
inactive

Which outcome was assigned to CSc1ccc(C(=O)c2[nH]c(=O)[nH]c2C)cc1 in this test?
inactive

Hey, what did the test say about CCn1ccnc1CC1COc2ccccc2O1 (stereo unspecified) ?
inactive

What classification did CC(C(=O)O)c1ccc(CC2CCCC2=O)cc1 (stereo unspecified) end up with in this test?
inactive

Called result for CCOC(=O)C1=C(C)NC(C)=C(C(=O)OC)C1c1cccc(Cl)c1Cl (stereo unspecified)
inactive

// return assay outcome for CC(C)COCC(CN(Cc1ccccc1)c1ccccc1)N1CCCC1 (stereo unspecified)
inactive

====

System: CP265
Method: qHTS profiling for inhibitors of Plasmodium falciparum proliferation (AID 504749); further: nearly all actives have a fitted effect of over 60% in size
Cond: P. falciparum in erythrocytes, SYBR Green DNA, 72 h; series mostly up to 28.7 µM
Records with an inconclusive call do not appear. Calls of active or inactive are those of the source. Calls come from the whole dose curve; as a rule, active = well fitted inhibition curve with a large enough effect; inconclusive = small, poorly fitted or top-dose-only effect; inactive = flat fitted curve, though single readings scatter.
Your answer must be one of the following: active, inactive

Each compound tested received a call. Report the one for NC(=O)c1ncn([C@@H]2O[C@H](CO)[C@@H](O)[C@H]2O)c1O .
inactive

Answer briefly: the call reported for NC1=NCC2c3ccccc3Cc3ccccc3N12 (centres undefined) in this assay.
inactive

Kindly provide the recorded test outcome for the following compound: CCNC(=O)N1CCN(CCCC(c2ccc(F)cc2)c2ccc(F)cc2)CC1
active

Recorded test call requested for O=C1CC2(CCCC2)CC(=O)N1CCCCN1CCN(c2ncccn2)CC1
inactive

What did this assay record as the result for CC1=NS(=O)(=O)c2cc(Cl)ccc2N1 ?
inactive

Hello, I am checking results. What call was entered for CC(=O)[C@@]1(O)CC[C@H]2[C@@H]3CCC4=CC(=O)CC[C@]4(C)[C@H]3CC[C@@]21C ?
inactive

What was the test verdict on Cc1ccc(Cl)c(Nc2ccccc2C(=O)O)c1Cl ?
inactive

Kindly provide the recorded test outcome for the following compound: C[N+](C)(C)CCOC(=O)CCC(=O)OCC[N+](C)(C)C
inactive

Record lookup: outcome of this test for CCCCCN(CCCCC)C(=O)C(CCC(=O)O)NC(=O)c1ccc(Cl)c(Cl)c1 (centres undefined) ?
inactive

What did the test return for O=c1[nH]c(=O)n([C@H]2C[C@H](O)[C@@H](CO)O2)cc1Br ?
inactive

Please let me know the test result on file for CC[N+](C)(C)c1cccc(O)c1 .
inactive

Query: recorded result category for CCCN(CCC)CCc1cccc2c1CC(=O)N2 in this test
inactive

Write down the call the test reported for this compound. Item: CN(C)CC/C=C1\c2ccccc2COc2ccccc21
active

# lookup: test call for NC/C=C/C(=O)O
inactive

# outcome recorded in this test, key = CN(C(=O)CCCOc1ccc2[nH]c(=O)ccc2c1)C1CCCCC1
inactive

Field: outcome | Entry: CC(C(=O)O)c1ccc(CC2CCCC2=O)cc1 (centres undefined)
inactive

How did this test come out for CCN(CC)CC(=O)Nc1c(C)cccc1C ?
inactive

Hello, I am checking results. What call was entered for CC(C)COCC(CN(Cc1ccccc1)c1ccccc1)N1CCCC1 (centres undefined) ?
inactive

Dear colleague, could you share the recorded outcome for O=C(CCCN1CCC(O)(c2cccc(C(F)(F)F)c2)CC1)c1ccc(F)cc1 when you have a moment?
active

What was the test verdict on CCN(CC)CCNC(=O)c1cc(S(C)(=O)=O)ccc1OC ?
inactive

Per the assay record, what outcome was assigned to CCO/C([O-])=N/c1c[n+](N2CCOCC2)no1 ?
inactive

Identify the outcome logged in this assay for the compound shown: CC(N=C(NC#N)Nc1ccncc1)C(C)(C)C (centres undefined)
inactive

Recorded test outcome, item CCn1cc(C(=O)O)c(=O)c2cc3c(cc21)OCO3
inactive

Fill in: this test's call for CN(C)CCN(Cc1cccs1)c1ccccn1 is ___
active

Hi, sorry to bother you, what did the test record for CCN(Cc1ccncc1)C(=O)C(CO)c1ccccc1 (centres undefined) ?
inactive

Check the results log: what was the call for Cc1ccc(=O)n(-c2ccccc2)c1 ?
inactive

Please share the test call associated with CCCCNc1c(C(=O)OCC)c(C)nc2c1cnn2CC .
inactive

Status in this test for COCC(=O)O[C@]1(CCN(C)CCCc2nc3ccccc3[nH]2)CCc2cc(F)ccc2[C@@H]1C(C)C ?
active

So what was the verdict on CC(C)NNC(=O)c1ccncc1 in this test?
inactive

Just curious, what result did CCOC(=O)c1cnc2c(cnn2CC)c1NN=C(C)C get here?
inactive

In this assay, the call recorded for COc1cc(C(=O)OCCCN2CCCN(CCCOC(=O)c3cc(OC)c(OC)c(OC)c3)CC2)cc(OC)c1OC was what?
active

How did this test come out for CN1CCN(CC(=O)N2c3ccccc3C(=O)Nc3cccnc32)CC1 ?
inactive

Write down the call the test reported for this compound. Item: COc1ccc(CCN(C)CCCC(C#N)(c2cc(OC)c(OC)c(OC)c2)C(C)C)cc1OC (centres undefined)
inactive

# lookup: test call for CNC1(C)C2CCC(C2)C1(C)C (centres undefined)
inactive

Please share the test call associated with NCCCNCCSP(=O)(O)O .
inactive

What did the test return for CN(C)C(=O)Oc1ccc[n+](C)c1 ?
inactive

Hello, I am checking results. What call was entered for CN(C)CCCN1c2ccccc2Sc2ccccc21 ?
active

Assay outcome for CN(C)CCOC(=O)COc1ccc(Cl)cc1 : what was it?
inactive

Outcome logged for Nc1c2c(nc3ccccc13)CCCC2O (centres undefined) in this assay:
inactive

Which outcome was entered for the compound Cc1cc(C)c(/C=C2\C(=O)Nc3ccccc32)[nH]1 in this test?
inactive

Any idea what this test logged for CC1=C(C)C(=O)C(CCCCC#CCCCC#CCO)=C(C)C1=O ?
active

Field: outcome | Entry: NS(=O)(=O)c1cc2c(cc1Cl)NC(C1CC3C=CC1C3)NS2(=O)=O (centres undefined)
inactive

Name the outcome recorded for COC(=O)[C@@H](N)Cc1ccc(O)c(O)c1 in the assay.
inactive

What is the recorded call for this compound in the test? C[C@H](CS)C(=O)N1CCC[C@H]1C(=O)O
inactive

What call does the record list for C[C@]12CCC(=O)C=C1CC[C@@H]1[C@@H]2CC[C@@]2(C)[C@H]1CC[C@]2(O)C(=O)CO ?
inactive

Field: outcome | Entry: Nc1nc(N)c2nc(-c3ccccc3)c(N)nc2n1
inactive

Please state the recorded outcome for this compound: CN1CCN(C2=Nc3ccccc3Oc3ccc(Cl)cc32)CC1
inactive

Each compound tested received a call. Report the one for CCCCCCCC/C=C\CCCCCCCC(=O)NCc1ccc(O)c(OC)c1 .
active

What classification did CCOC(=O)C1=C(C)NC(C)=C(C(=O)OC)C1c1cccc(Cl)c1Cl (centres undefined) end up with in this test?
inactive
